Value source: patent US10246429B2

target: UniProt P07339
Sequence (P07339 65-412, species assumed): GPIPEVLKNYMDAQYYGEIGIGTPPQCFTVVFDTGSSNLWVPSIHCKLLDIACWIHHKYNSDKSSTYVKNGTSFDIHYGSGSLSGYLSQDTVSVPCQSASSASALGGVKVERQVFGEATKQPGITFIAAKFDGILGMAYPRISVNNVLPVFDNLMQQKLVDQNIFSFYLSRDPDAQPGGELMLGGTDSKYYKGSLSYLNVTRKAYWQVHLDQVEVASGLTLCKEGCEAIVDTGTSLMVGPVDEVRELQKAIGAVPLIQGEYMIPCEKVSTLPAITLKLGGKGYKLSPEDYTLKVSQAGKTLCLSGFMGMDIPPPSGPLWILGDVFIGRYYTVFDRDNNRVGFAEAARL
testName: CatD assay
Format: biochemical
details: read-out: IC50 IP (μM) CatD
// values below are reported IC50

{"compound": "CN(C)C(=O)[C@]12C[C@H]1[C@@](C)(c1cc(/C=C(\\F)C#Cc3ccccc3)ccc1F)N=C(N)S2", "IC50": "14.6 µM"}
{"compound": "CN(C)C(=O)[C@]12C[C@H]1[C@@](C)(c1cc(/C(F)=C/c3ccc(C#N)cc3)ccc1F)N=C(N)S2 [Example 221]", "IC50": "48.6 µM"}

Recorded IC50 for COC[C@]12C[C@H]1[C@@](C)(c1cc(/C=C(\F)c3cnc(OCc4cc(C)no4)cn3)ccc1F)N=C(N)S2 on UniProt P07339 was 156 µM

Recorded IC50 for C[C@]1(c2cc(/C=C(\F)c3ccc(C#N)cn3)ccc2F)N=C(N)S[C@@]2(C(=O)N3Cc4ccccc4C3)C[C@H]21 [Example 129, bis(2,2,2-trifluoroacetate)] on UniProt P07339 was 133 µM

* * *

target: BACE1 (Homo sapiens (Human), UniProt P56817)
Sequence (P56817 46-501): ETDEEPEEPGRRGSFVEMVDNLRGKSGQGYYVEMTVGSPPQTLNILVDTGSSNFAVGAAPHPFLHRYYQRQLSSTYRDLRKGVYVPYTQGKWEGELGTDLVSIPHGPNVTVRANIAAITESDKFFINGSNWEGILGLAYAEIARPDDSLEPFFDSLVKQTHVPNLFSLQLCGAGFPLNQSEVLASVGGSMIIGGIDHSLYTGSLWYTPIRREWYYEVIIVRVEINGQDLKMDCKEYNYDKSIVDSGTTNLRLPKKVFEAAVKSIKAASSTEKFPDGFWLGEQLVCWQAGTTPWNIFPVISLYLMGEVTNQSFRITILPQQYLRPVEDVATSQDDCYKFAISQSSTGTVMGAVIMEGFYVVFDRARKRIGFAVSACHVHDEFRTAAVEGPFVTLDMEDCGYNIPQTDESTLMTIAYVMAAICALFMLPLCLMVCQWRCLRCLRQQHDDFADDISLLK
testName: In vitro enzymatic BACE1 FRET assay
Type: biochemical
readoutLabel: IC50 (nM)
Could you give me the number in nM? Just the number is fine.

The measured IC50 associated with C[C@]1(c2cc(/C=C(\F)c3ccc(C#N)cn3)ccc2F)N=C(N)S[C@@]2(C(=O)N3CCOC[C@@H]3CO)C[C@H]21 reads 2.8

The measured IC50 associated with C#CCOc1cnc(/C(F)=C/c2cnc(F)c([C@@]3(C)N=C(N)S[C@@]4(C(=O)N5[C@H]6COC[C@H]5COC6)C[C@H]43)c2)cn1 reads 3.9

* * *

target: BACE1 (Homo sapiens (Human))
testName: In vitro enzymatic BACE1 FRET assay
Assay type: biochemical
details: read-out: IC50 IP (μM) BACE1 Enzyme
API: label(entry) gives TRUE if the entry's IC50 is strictly smaller than 0.01 µM; on equality or larger values it gives FALSE.

{"molSmiles": "C[C@]1(c2cc(/C=C(\\F)c3ccc(C4COC4)cn3)ccc2F)N=C(N)S[C@@]2(C(=O)N3CCOCC3)C[C@H]21", "discreteLabel": "FALSE"}
{"molSmiles": "C[C@]1(c2cc(/C=C(\\F)c3ccc(C#N)cn3)ccc2F)N=C(N)S[C@@]2(C(=O)N3CC4(CCOCC4)C3)C[C@H]21", "discreteLabel": "TRUE"}
{"molSmiles": "C#CCOc1cnc(/C(F)=C/c2ccc(F)c([C@@]3(C)N=C(N)S[C@@]4(C(=O)N5CC[C@@H](F)C5)C[C@H]43)c2)cn1", "discreteLabel": "TRUE"}

Exercise: Would you kindly verify if IC50 of C[C@]1(c2cc(/C=C(\F)c3ccccn3)ccc2F)N=C(N)S[C@@]2(C(=O)N3CCOCC3)C[C@H]21 is strictly less than 0.01 µM?
Key: FALSE

Exercise: Would you kindly verify if IC50 of CNC(=O)[C@]12C[C@H]1[C@@](C)(c1cc(/C=C(\F)c3cnc(C#CCO)cn3)ccc1F)N=C(N)S2 is strictly less than 0.01 µM?
Key: TRUE

Exercise: Would you kindly verify if IC50 of COC(=O)[C@]12C[C@H]1[C@@](C)(c1cc(/C=C(\F)c3cnc(Cl)cn3)ccc1F)N=C(N)S2 is strictly less than 0.01 µM?
Key: FALSE
